Reference source for all entries: patent US20080090805A1

- MEASURED ON: CB1 (mutant) (Homo sapiens, UniProt P21554)
- Sequence (P21554 1-417, change not shown): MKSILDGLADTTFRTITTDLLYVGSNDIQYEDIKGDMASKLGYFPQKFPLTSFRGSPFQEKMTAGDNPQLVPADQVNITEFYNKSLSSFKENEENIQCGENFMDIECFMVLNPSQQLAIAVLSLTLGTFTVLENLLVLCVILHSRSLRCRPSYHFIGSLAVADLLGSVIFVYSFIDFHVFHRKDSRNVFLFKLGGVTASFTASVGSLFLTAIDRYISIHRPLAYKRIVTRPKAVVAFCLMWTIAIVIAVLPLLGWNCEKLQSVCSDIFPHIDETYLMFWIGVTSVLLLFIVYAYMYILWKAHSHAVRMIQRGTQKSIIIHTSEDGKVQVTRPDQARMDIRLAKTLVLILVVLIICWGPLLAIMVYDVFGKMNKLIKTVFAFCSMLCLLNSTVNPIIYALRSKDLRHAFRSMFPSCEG
- EXPERIMENT SUMMARY: R-SAT functional receptor assay, CB1 (mutant, truncated after amino acid 417)
- Format: cell-based
- CONDITION: Appendix A; R-SAT CB1; receptor form not stated; relative to SR141716 (100%); read-out: % Inhibition
METRIC: Emax (%)
Reply with just the number (in %).

Before answering, review these 8 worked examples.
{"columns": ["MOLECULE", "Emax [%]"],
 "data": [
  ["CC(NC(=O)c1ccc2c(c1)N=C(c1ccccc1)c1ccccc1S2)c1ccccc1 (stereo not drawn) [drawing 1147]", 85],
  ["O=C(NC1CCCCC1)c1ccc2c(c1)N=C(c1ccccn1)c1ccccc1S2 [drawing 598]", 112],
  ["CC(C)CNC(=O)c1ccc2c(c1)N=C(c1ccc(Cl)cc1Cl)c1ccccc1S2", 87],
  ["CCCCN(C)C(=O)c1ccc2c(c1)N=C(c1ccc(Cl)s1)c1ccccc1S2", 87],
  ["O=C(NCCc1ccncc1)c1ccc2c(c1)N=C(c1cccc(F)c1)c1ccccc1S2 [drawing 1097]", 106],
  ["CCCCNC(=O)c1ccc2c(c1)N=C(c1sccc1C)c1ccccc1S2 [drawing 881]", 91],
  ["O=C(NCCc1ccncc1)c1ccc2c(c1)N=C(c1ccc(Cl)cc1Cl)c1ccccc1S2", 72],
  ["CCOC(=O)c1ccc(C2=Nc3cc(C(=O)NCc4cccnc4)ccc3Sc3ccccc32)cc1 [drawing 850]", 73]
]}

In the following, a different molecule is considered.
Record COc1ccc(C2=Nc3cc(C(=O)NCc4ccncc4)ccc3Sc3ccccc32)cc1 [drawing 728] , field Emax: 105

----------
- System: fasted Sprague-Dawley rats
- EXPERIMENT SUMMARY: Acute feeding study
- Assay type: in vivo
- CONDITION: Table 3 feeding data
Catalogue of Feeding ID50 readings, one per entry.
Output should be the measured figure followed by the unit it is expressed in.

{"columns": ["COMPOUND", "Feeding ID50"],
 "data": [
  ["O=C(NCc1cccnc1)c1ccc2c(c1)N=C(c1ccc(Cl)c(Cl)c1)c1ccccc1S2 [drawing 541]", "14 mg/kg"],
  ["O=C(NN1CCCCC1)c1ccc2c(c1)N=C(c1ccc(Cl)cc1)c1ccccc1S2 [drawing 543]", "2.4 mg/kg"],
  ["CC(C)CNC(=O)c1ccc2c(c1)N=C(c1ccc(Cl)s1)c1ccccc1S2 [drawing 544]", "7.9 mg/kg"],
  ["CC(C)CNC(=O)c1ccc2c(c1)N=C(c1ccc(Cl)c(Cl)c1)c1ccccc1S2 [drawing 540]", "8.4 mg/kg"],
  ["CCCCNC(=O)c1ccc2c(c1)N=C(c1ccc(Cl)cc1)c1ccccc1S2 [drawing 536]", "2.4 mg/kg"]
]}

Record CCCCNC(=O)c1ccc2c(c1)N=C(c1ccc(F)cn1)c1ccccc1S2 [drawing 545] , field Feeding ID50: 6 mg/kg

Record CC(C)CNC(=O)c1ccc2c(c1)N=C(c1ccc(Cl)cc1F)c1ccccc1S2 [drawing 542] , field Feeding ID50: 5.8 mg/kg

Record O=C(NN1CCCCC1)c1ccc2c(c1)N=C(C1CCCCC1)c1ccccc1S2 [drawing 537] , field Feeding ID50: 12 mg/kg

Record O=C(NCc1ccc(F)cc1)c1ccc2c(c1)N=C(c1ccc(Cl)cc1)c1ccccc1S2 [drawing 539] , field Feeding ID50: 8 mg/kg

Record CC(C)CCNC(=O)c1ccc2c(c1)N=C(c1cccc(Cl)c1)c1ccccc1S2 [drawing 538] , field Feeding ID50: 5.3 mg/kg

----------
- MEASURED ON: native CB1 receptors (Rattus norvegicus)
- Sequence (P20272 whole entry): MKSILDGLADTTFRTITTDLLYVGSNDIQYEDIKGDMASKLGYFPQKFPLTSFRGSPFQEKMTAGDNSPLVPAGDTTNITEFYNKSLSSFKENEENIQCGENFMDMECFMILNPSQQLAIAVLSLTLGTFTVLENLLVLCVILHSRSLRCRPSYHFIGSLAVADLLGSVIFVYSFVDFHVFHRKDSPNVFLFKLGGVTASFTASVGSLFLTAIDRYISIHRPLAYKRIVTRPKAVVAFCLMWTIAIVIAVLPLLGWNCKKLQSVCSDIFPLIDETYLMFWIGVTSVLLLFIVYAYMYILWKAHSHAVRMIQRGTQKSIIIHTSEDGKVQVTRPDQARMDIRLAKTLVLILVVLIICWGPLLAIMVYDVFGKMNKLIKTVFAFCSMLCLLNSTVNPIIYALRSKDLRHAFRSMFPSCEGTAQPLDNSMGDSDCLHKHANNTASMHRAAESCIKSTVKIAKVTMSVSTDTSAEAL
- EXPERIMENT SUMMARY: CB1 receptor rat binding assay ([3H]SR141716A, rat brain membranes)
- CONDITION: rat brain membranes, [3H]SR141716A; read-out: Binding rat pKi (converted)
Field: label. Allowed values: fulfilled (Ki < 20 nM) or not fulfilled (Ki >= 20 nM).

Record excerpt, results attached:
{"columns": ["MOLECULE", "CATEGORY LABEL"],
 "data": [
  ["CCCC1=Nc2cc(C(=O)NCCc3cc(OC)ccc3OC)ccc2Sc2ccccc21 [drawing 1549]", "not fulfilled"],
  ["O=C(NN1CCCCC1)c1ccc2c(c1)N=C(c1ccccc1)c1ccccc1S2 [drawing 1462]", "not fulfilled"],
  ["Cc1ccsc1C1=Nc2cc(C(=O)NCc3cccs3)ccc2Sc2ccccc21 [drawing 1344]", "fulfilled"],
  ["O=C(NN1CCCCCC1)c1ccc2c(c1)N=C(c1ccccc1F)c1ccccc1S2 [drawing 1342]", "not fulfilled"],
  ["NS(=O)(=O)c1ccc(CNC(=O)c2ccc3c(c2)N=C(c2ccc(F)cc2)c2ccccc2S3)cc1 [drawing 1454]", "not fulfilled"],
  ["CCCCNC(=O)c1ccc2c(c1)N=C(c1ccc(Cl)s1)c1cc(F)ccc1S2 [drawing 1515]", "fulfilled"],
  ["O=C(NCCc1ccccn1)c1ccc2c(c1)N=C(c1ccc(Br)cc1)c1ccccc1S2 [drawing 1460]", "not fulfilled"],
  ["O=C(NCc1cccs1)c1ccc2c(c1)N=C(c1cccc(F)c1)c1ccccc1S2 [drawing 1384]", "fulfilled"],
  ["O=C(NCc1cccc(Cl)c1)c1ccc2c(c1)N=C(c1ccc(Cl)cc1)c1ccccc1S2 [drawing 1257]", "fulfilled"],
  ["Cc1ccc(CNC(=O)c2ccc3c(c2)N=C(c2ccc(Cl)c(Cl)c2)c2ccccc2S3)o1 [drawing 1320]", "fulfilled"]
]}

Problem: For the molecule COCCNC(=O)c1ccc2c(c1)N=C(c1ccc(Br)cc1)c1ccccc1S2 [drawing 1358] , is Ki under 20 nM?
not fulfilled

Problem: For the molecule CCCCNC(=O)c1ccc2c(c1)N=C(c1ccc(Cl)cc1)c1cc(Cl)ccc1S2 [drawing 1464] , is Ki under 20 nM?
fulfilled

Problem: For the molecule Cc1cccc(C2=Nc3cc(C(=O)NCC(C)C)ccc3Sc3ccccc32)n1 [drawing 1472] , is Ki under 20 nM?
fulfilled

Problem: For the molecule CC(CNC(=O)c1ccc2c(c1)N=C(c1ccccc1F)c1ccccc1S2)c1ccccc1 (stereo not drawn) [drawing 1214] , is Ki under 20 nM?
fulfilled

Problem: For the molecule O=C(NC1CCC(F)(F)CC1)c1ccc2c(c1)N=C(c1ccccn1)c1ccccc1S2 [drawing 1414] , is Ki under 20 nM?
not fulfilled

Problem: For the molecule CC(C)CCNC(=O)c1ccc2c(c1)N=C(c1ccccc1F)c1ccccc1S2 [drawing 1509] , is Ki under 20 nM?
fulfilled

----------
Catalogue of Emax readings, one per entry.
- MEASURED ON: CB1 (mutant) (Homo sapiens, UniProt P21554)
- EXPERIMENT SUMMARY: R-SAT functional receptor assay, CB1 (mutant, truncated after amino acid 417)
- Type: cell-based
- CONDITION: Appendix A; R-SAT CB1; receptor form not stated; relative to SR141716 (100%); read-out: % Inhibition
Output should be the measured figure followed by the unit it is expressed in.

Before answering, review these 5 worked examples.
{"columns": ["MOLECULE", "MEASURED ON", "VALUE OBSERVED"],
 "data": [
  ["CONC(=O)c1ccc2c(c1)N=C(c1ccc(Cl)s1)c1ccccc1S2", "CB1 (mutant) (Homo sapiens, UniProt P21554)", "66%"],
  ["O=C(NCCC(F)(F)F)c1ccc2c(c1)N=C(c1ccsc1)c1ccccc1S2 [drawing 607]", "CB1 (mutant) (Homo sapiens, UniProt P21554)", "97%"],
  ["CCN(CCNC(=O)c1ccc2c(c1)N=C(c1cccc(Cl)c1)c1ccccc1S2)c1ccccc1 [drawing 713]", "CB1 (mutant) (Homo sapiens, UniProt P21554)", "97%"],
  ["CC(NC(=O)c1ccc2c(c1)N=C(c1ccccc1F)c1ccccc1S2)c1ccccc1 (stereo not drawn) [drawing 748]", "CB1 (mutant) (Homo sapiens, UniProt P21554)", "69%"],
  ["O=C(NCCC(F)(F)F)c1ccc2c(c1)N=C(c1cccc(Cl)c1)c1ccccc1S2 [drawing 549]", "CB1 (mutant) (Homo sapiens, UniProt P21554)", "96%"]
]}

Assay CB1 (mutant) (Homo sapiens, UniProt P21554), sample CCCC1=Nc2cc(C(=O)NCCc3cc(OC)ccc3OC)ccc2Sc2ccccc21 [drawing 1051] , Emax read: 98%

Assay CB1 (mutant) (Homo sapiens, UniProt P21554), sample CCCCNC(=O)c1ccc2c(c1)N=C(CCC)c1ccccc1S2 , Emax read: 111%

Assay CB1 (mutant) (Homo sapiens, UniProt P21554), sample CC(C)NC(=O)c1ccc2c(c1)N=C(c1cccc(Cl)c1)c1ccccc1S2 [drawing 921] , Emax read: 118%

Assay CB1 (mutant) (Homo sapiens, UniProt P21554), sample O=C(NC1CCCCNC1=O)c1ccc2c(c1)N=C(c1ccc(F)cc1)c1ccccc1S2 (stereo not drawn) , Emax read: 83%

----------
Catalogue of Hypothermia 0.3 mg/kg readings, one per entry.
- Tested on: NSA mice
- EXPERIMENT SUMMARY: Hypothermia study (block of CP 55,940-induced hypothermia)
- Assay type: in vivo
- Set-up: unit not given here
- CONDITION: 0.3 mg/kg
Answer with the value's number alone.

Before answering, review these 2 worked examples.
{"columns": ["COMPOUND", "Hypothermia 0.3 mg/kg"],
 "data": [
  ["O=C(NC1CCC(F)(F)CC1)c1ccc2c(c1)N=C(c1cccc(Cl)c1)c1ccccc1S2 [drawing 1604]", 5],
  ["CC(C)CCNC(=O)c1ccc2c(c1)N=C(c1cccc(Cl)c1)c1ccccc1S2 [drawing 1564]", 35]
]}

In the following, a different compound is considered.
Assay NSA mice, sample O=C(NN1CCCCCC1)c1ccc2c(c1)N=C(c1cccc(Cl)c1)c1ccccc1S2 [drawing 1586] , Hypothermia 0.3 mg/kg read: −27
